Molecular target: ACE (Homo sapiens, UniProt P12821)
Construct: purchased Dojindo Molecular Technology Inc., Kumamoto, Japan
Sequence (P12821 30-1306, species assumed): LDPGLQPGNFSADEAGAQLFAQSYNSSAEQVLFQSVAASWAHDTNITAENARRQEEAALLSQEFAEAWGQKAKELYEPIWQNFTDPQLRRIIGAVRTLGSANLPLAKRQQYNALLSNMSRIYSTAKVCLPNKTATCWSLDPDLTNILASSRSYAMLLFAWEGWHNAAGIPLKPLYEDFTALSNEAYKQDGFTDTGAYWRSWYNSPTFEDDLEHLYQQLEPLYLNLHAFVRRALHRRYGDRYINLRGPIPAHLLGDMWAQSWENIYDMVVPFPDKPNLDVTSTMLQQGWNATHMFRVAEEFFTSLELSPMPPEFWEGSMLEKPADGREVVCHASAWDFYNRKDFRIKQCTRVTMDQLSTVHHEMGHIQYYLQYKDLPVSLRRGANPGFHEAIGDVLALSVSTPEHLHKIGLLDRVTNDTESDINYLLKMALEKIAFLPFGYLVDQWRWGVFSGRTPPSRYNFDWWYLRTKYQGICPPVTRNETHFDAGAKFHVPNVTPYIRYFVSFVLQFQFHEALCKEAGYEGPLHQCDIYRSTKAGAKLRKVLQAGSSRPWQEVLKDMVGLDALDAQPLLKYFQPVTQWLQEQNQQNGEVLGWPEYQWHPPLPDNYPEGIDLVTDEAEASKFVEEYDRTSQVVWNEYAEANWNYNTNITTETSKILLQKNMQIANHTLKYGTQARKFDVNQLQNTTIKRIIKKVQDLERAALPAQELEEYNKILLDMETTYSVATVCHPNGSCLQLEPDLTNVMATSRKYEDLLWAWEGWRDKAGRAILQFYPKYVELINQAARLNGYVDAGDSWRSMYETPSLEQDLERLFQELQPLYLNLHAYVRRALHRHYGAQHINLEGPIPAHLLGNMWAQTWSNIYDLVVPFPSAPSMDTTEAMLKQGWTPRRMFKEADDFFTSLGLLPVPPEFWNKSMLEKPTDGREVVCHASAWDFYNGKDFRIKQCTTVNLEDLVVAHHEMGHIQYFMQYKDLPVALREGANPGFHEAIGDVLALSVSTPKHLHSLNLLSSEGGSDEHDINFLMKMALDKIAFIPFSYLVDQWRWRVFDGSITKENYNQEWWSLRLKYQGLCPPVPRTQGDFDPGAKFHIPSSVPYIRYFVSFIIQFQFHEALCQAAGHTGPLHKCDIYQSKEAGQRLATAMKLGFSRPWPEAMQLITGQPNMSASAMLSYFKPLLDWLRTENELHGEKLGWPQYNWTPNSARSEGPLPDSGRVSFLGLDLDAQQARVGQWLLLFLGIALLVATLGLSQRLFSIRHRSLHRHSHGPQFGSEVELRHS
Experiment: ACE inhibitory activity assay kit
Type: biochemical
Settings: synthetic peptides; captopril positive control; read-out: IC50 ACE inhibition
No end group written: not given here.
quantity-name: IC50 (µM)

Examples with their reported IC50 follow.
substance="EGSGKGVR [Glu-Gly-Ser-Gly-Lys-Gly-Val-Arg]" quantity_name=IC50 observed=87.2
substance="HCGDGDAPY [His-Cys-Gly-Asp-Gly-Asp-Ala-Pro-Tyr]" quantity_name=IC50 observed=103
substance="DSVSASP [Asp-Ser-Val-Ser-Ala-Ser-Pro]" quantity_name=IC50 observed=117

[I] LDSKHEAP [Leu-Asp-Ser-Lys-His-Glu-Ala-Pro]
[II] DLSSAP [Asp-Leu-Ser-Ser-Ala-Pro]
(Q) Between I and II , which one shows the larger IC50 value? Select an item and report its label.
(A) I
(I: 121 µM, II: 4.75 µM)

[P] PTTKTNVPPHF
[Q] HVLSA [His-Val-Leu-Ser-Ala]
(Q) Please tell me which of the two, P or Q , has the higher reported IC50 value. Use the label to indicate which entry you chose.
(A) P
(P: 119 µM, Q: 10 µM)
